Cited source: PubChem BioAssay AID1850

assay: PhoP regulon inhibitors, Salmonella typhi PhoP promoter GFP reporter, confirmatory (AID 1850); details: fluorescence, 4 h, at 50 µM, hits give high values;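 note: 0% = induced wells with vehicle and 100% = uninduced wells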
The campaign covered roughly 310,000 compounds. About 1,000 (0.32%) were called active. The list is a sample of the results. Potency and affinity values are given separately.
test.readout: inhibition (%)
Number only, in %; omit the unit.

Reported inhibition ( `CN1CCN(/N=C/c2ccc(-c3ccccc3)cc2)CC1` ) = 1.69

Reported inhibition ( `CCN(CC(=O)NCc1ccc(Cl)cc1)C(=O)CSc1cccc(C(F)(F)F)c1` ) = 5.75

Reported inhibition ( `CCC(=O)Nc1ccc2c(c1)nc(CCN1CCCCC1)n2C` ) = 0.58

Reported inhibition ( `c1cncc(-c2nnc(SCc3cccc4ccccc34)o2)c1` ) = 8.54

Reported inhibition ( CC(=O)Nc1ccc(S(=O)(=O)Oc2ccccc2N2C(=O)C3C4CCC(C4)C3C2=O)cc1 (stereo unspecified) ) = 1.86

Reported inhibition ( `CCn1c(CN2c3ccccc3Sc3ccccc32)n[nH]c1=S` ) = 4.44

Reported inhibition ( `c1cc2ccc3ccc(CN4CCOCC4)c4ccc(c1)c2c34` ) = -8.34

Reported inhibition ( CCOP(=O)(c1ccccc1)C1(O)CCCCC1 (stereo unspecified) ) = 14.1

Reported inhibition ( `O=c1[nH]c(=O)n(C2CCCCCC2)c(O)c1C=NCc1cccnc1` ) = 0.08

Reported inhibition ( `Cc1cc(-c2nnc3n2N=C(c2ccc(F)cc2)CS3)n[nH]1` ) = -5.9

Reported inhibition ( NC1=NC(c2ccccc2Cl)n2c(nc3ccccc32)N1 (stereo unspecified) ) = 4.77
